The reported measurements were obtained from PubChem BioAssay (NCATS).

- PROCEDURE DETAILS: Validation screen for small molecules that induce DNA re-replication in SW480 colon adenocarcinoma cells (AID 504364)
- CONDITION INFO: DNA re-replication phenotype (high-content imaging); series mostly up to 46.1 µM
Results filed as inconclusive are left out. Calls of active or inactive are those of the source. Calls follow the shape of the dose curve; as a rule, active = well fitted activation curve with a large enough effect; inconclusive = small, poorly fitted or top-dose-only effect; inactive = flat fitted curve, though single readings scatter.
QUANTITY NAME: outcome

// worked examples, outcome included
- MOLECULE: "NC(N)=NC(N)=Nc1cccc(Cl)c1"
  outcome: "inactive"
- MOLECULE: "O=C(O)C1CCCNC1 (stereo unspecified)"
  outcome: "inactive"
- MOLECULE: "CC1=C(/C=C/C(C)=C/C=C/C(C)=C\\C(=O)O)C(C)(C)CCC1"
  outcome: "inactive"
- MOLECULE: "CCCn1c(=O)c2c(ncn2C)n(CCC)c1=O"
  outcome: "inactive"
- MOLECULE: "CO/N=C(\\C(=O)N[C@@H]1C(=O)N2C(C(=O)O)=C(CSc3nc(=O)c(O)nn3C)CSC12)c1csc(N)n1 (stereo partly specified)"
  outcome: "inactive"

# outcome lookup, item COc1ccc2c(c1)c(CC(=O)O)c(C)n2Cc1ccc(Cl)cc1 inactive
